Cited source for all entries: ChEMBL document CHEMBL2218924

# residual activity listing for each entry below
ASSAYED TARGET: AMP-activated protein kinase (AMPK) alpha-1/beta-1/gamma-1 (Homo sapiens) (UniProt P54619+Q9Y478+Q13131)
Sequence (P54619 whole entry): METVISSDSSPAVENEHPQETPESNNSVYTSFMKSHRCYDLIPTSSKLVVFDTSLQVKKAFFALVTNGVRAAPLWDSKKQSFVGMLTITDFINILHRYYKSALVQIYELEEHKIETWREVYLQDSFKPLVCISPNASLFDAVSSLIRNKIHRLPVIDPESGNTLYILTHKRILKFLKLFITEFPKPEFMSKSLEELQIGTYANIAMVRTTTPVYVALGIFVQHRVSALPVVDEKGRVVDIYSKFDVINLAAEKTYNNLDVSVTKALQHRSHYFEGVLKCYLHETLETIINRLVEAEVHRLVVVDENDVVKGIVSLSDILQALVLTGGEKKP
Sequence (Q13131 whole entry partner): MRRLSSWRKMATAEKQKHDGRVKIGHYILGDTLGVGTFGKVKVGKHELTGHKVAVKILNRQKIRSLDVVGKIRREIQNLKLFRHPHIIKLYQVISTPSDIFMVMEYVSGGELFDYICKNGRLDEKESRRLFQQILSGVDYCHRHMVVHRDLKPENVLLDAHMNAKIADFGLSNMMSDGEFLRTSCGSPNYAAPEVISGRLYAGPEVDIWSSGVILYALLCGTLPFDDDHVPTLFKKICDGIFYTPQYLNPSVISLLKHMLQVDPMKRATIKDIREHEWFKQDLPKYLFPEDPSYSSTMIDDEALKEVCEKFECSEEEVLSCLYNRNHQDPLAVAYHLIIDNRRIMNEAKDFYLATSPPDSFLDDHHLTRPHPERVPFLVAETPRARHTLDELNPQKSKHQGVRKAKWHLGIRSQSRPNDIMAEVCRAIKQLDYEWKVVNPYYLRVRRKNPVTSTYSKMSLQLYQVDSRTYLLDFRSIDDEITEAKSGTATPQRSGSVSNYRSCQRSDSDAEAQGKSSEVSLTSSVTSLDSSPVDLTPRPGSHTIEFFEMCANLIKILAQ
Sequence (Q9Y478 2-270 partner limits assumed): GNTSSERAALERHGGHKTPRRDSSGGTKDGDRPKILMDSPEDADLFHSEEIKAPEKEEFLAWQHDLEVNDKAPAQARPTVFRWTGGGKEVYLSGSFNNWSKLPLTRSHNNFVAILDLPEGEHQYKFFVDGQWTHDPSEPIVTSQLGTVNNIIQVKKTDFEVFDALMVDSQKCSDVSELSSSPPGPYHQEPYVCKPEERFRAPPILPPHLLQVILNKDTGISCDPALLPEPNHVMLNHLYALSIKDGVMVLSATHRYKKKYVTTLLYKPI
EXPERIMENTAL CONTEXT: at 10 µM

SUBSTANCE SMILES	residual activity (%)
CC(C)(C)c1nc2c3ccc(F)cc3c3c(=O)[nH]ccc3c2[nH]1	31
CC(C)(C)n1nc(Cc2cccc3ccccc23)c2c(N)ncnc21	72
O=C1NC(=O)c2c1c1c3ccccc3[nH]c1n1cncc21	34
CN(C)S(=O)(=O)c1ccc2c(c1)/C(=C/c1cc3c([nH]1)CCCC3)C(=O)N2	29
CCN(CC)CCNC(=O)c1c(C)[nH]c(/C=C2\C(=O)Nc3ccc(Cl)cc32)c1C	3
COc1cc2ncnc(Nc3cccc(Cl)c3)c2cc1OC	67
CC(C)c1nn(-c2c(Cl)cccc2Cl)c2nc(Cc3ccc(OCCO)cc3)[nH]c(=O)c12	71
